# assay explanation: CEETOX_H295R_OHPROG: CeeTox H295R High-throughput Steroidogenesis Assay for OH-Progesterone (OHPROG) (AID 2283435)
# run conditions: actives raise or lower the signal
# Experimental: CEETOX_H295R is a cell-based, multiplexed-readout assay that uses H295R, a human adrenal gland cell line, with measurements taken at 48 hours after chemical dosing in a 96-well plate.CEETOX_H295R_OHPROG is one of 23 assay component(s) measured or calculated from the CEETOX_H295R assay. […] This assay endpoint, CEETOX_H295R_OHPROG, was analyzed with bidirectional fitting relative to DMSO as the negative control and baseline of activity. […]
Active and inactive are the calls of the source. The calls were made as follows: active = hit-call score of the fitted dose curve at least 0.9, where 1 is the maximum; inactive = score below 0.9.
Outcome codes: active, inactive

- compound structure: "Cc1ccc(N=C=O)cc1N=C=O"
  class name: "inactive"
- compound structure: "CCCCCOC(=O)c1ccccc1C(=O)OCCCCC"
  class name: "inactive"
- compound structure: "Nc1ccc(N=Nc2ccccc2)cc1"
  class name: "active"

====

# Read-out: Vascular cell adhesion molecule 1 (VCAM1), VCAM1 (gene 7412)
# assay explanation: BSK_4H_VCAM1: BioMAP Diversity Plus: 4H Assay for Vascular cell adhesion molecule 1 (VCAM1) Biomarker Activity (AID 2283033);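 as to Outcome: cell-surface VCAM-1 protein measured by ELISA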
# run conditions: primary human endothelial cells (HUVEC); actives raise or lower the signal
Calls of active or inactive are those of the source. The calls were made as follows: active = hit-call score of the fitted dose curve at least 0.9, where 1 is the maximum; inactive = score below 0.9.
Outcome codes: y (active), n (inactive)

- compound: "CCC[CH2][Sn]([Cl])([CH2]CCC)[CH2]CCC"
  class name: "y"
- compound: "CC(C)(C)OOC(C)(C)CCC(C)(C)OOC(C)(C)C"
  class name: "n"
- compound: "C1=Cc2cccc3cccc1c23"
  class name: "n"
- compound: "Cc1ccc(N)cc1"
  class name: "n"
- compound: "CCC12COCN1COC2"
  class name: "n"
- compound: "CCCCC(CC)COC(=O)c1ccc(C(=O)OCC(CC)CCCC)c(C(=O)OCC(CC)CCCC)c1 (centres undefined)"
  class name: "n"
- compound: "Cc1cccc(N)c1N"
  class name: "y"
- compound: "C[C@]12C=CC3=C4CCC(=O)C=C4CC[C@H]3[C@@H]1CC[C@@H]2O"
  class name: "n"
- compound: "CCCCCOC(=O)c1ccccc1C(=O)OCCCCC"
  class name: "y"
- compound: "CN(C)[C@@H]1C(=O)C(C(N)=O)=C(O)[C@@]2(O)C(=O)C3=C(O)c4c(O)cccc4[C@@](C)(O)[C@H]3C[C@@H]12"
  class name: "n"
- compound: "CCOC(=O)[C@]1(c2ccccc2)Oc2ccccc2[C@@H]1N"
  class name: "y"
- compound: "[O-][Cl+]O"
  class name: "n"
- compound: "c1ccc2c(c1)-c1cccc3cccc-2c13"
  class name: "n"
- compound: "Clc1ccc(C(c2ccc(Cl)cc2)C(Cl)Cl)cc1"
  class name: "y"
- compound: "Cc1cc(N=Nc2ccccc2C)ccc1N"
  class name: "y"
- compound: "C=CCc1ccc2c(c1)OCO2"
  class name: "n"
- compound: "Nc1ccc(Oc2ccc(N)cc2)cc1"
  class name: "n"
- compound: "O=C(Oc1ccc(Br)cc1)N1CCN2CCC1CC2"
  class name: "n"
- compound: "Cn1cc(-c2ccccc2)c(=O)c(-c2cccc(C(F)(F)F)c2)c1"
  class name: "n"
- compound: "CCCSC(=O)N(CCC)CCC"
  class name: "n"
- compound: "COP(=S)(OC)SCN1C(=O)c2ccccc2C1=O"
  class name: "n"
- compound: "Cc1ccc(N)c(N)c1"
  class name: "y"
- compound: "N#CC(Br)(Br)C(N)=O"
  class name: "n"
- compound: "O=Cc1ccco1"
  class name: "n"
- compound: "O=C1CCCO1"
  class name: "n"
- compound: "CC(C)(C)OOC(=O)c1ccccc1"
  class name: "n"
- compound: "C[N+](C)(C)CC1CO1 (centres undefined)"
  class name: "n"
- compound: "Nc1cc(Cl)cc(C(=O)O)c1Cl"
  class name: "n"
- compound: "O=C(O)C1C2CCC(O2)C1C(=O)O (centres undefined)"
  class name: "y"
- compound: "Oc1ccccc1Cl"
  class name: "n"
- compound: "CC(C)(C)C(O)(CCc1ccc(Cl)cc1)Cn1cncn1 (centres undefined)"
  class name: "n"
- compound: "COC(=O)c1ccccc1N"
  class name: "n"
- compound: "CCCCCCCCCCCCCN1CC(C)OC(C)C1 (centres undefined)"
  class name: "n"
- compound: "Nc1ccc([N+](=O)[O-])cc1"
  class name: "n"
